- System: MS2 coat protein
- test: apparent KD of MS2 coat protein; higher = weaker reporter binding
- stated-conditions: Eterna round: R107; input ligand: tryptophan 2.4 mM
Label rule, in plain words: apparent KD of MS2 coat protein of 20 nM and up is True, under 20 nM is False.

# sequence-record, label-value
records = [
    ("UAUACAUGAGGAUCACCCAUGUGCCAUGAUACCAGACAUGAAAAUGUCCCUUGGCAGCAUGGGAAAUGUAUAGCGGGAAACCCGA [Slatina]", "True"),
    ("UGAGAACAUGUCUUUAAGUUUACCUCUGAUACCAGAUUGAAAGGCAUCCCUUGGCAGCAGCAUACAUGAGGAUCACCCAUGUCCU [theeternabot_exclusion_MS2_Theo_A_12]", "True"),
    ("AAACGUUGCUCAGAUACCAGACAUGAGGAUCACCCAUGUACCAAGGUACCCGAAAGGAAUGUCCCUUGGCAGCUGAGCAACGAAA [MAT - Exclusion Theophlline B - Mod of Eli - D21]", "False"),
    ("GUAAGAGUAGGAAGGAGCGCUUUACAUGAGGAUCACCCAUGUGUGCCCUCAAUUUCGGUAAAGCAGGUAGGUCGCCUAAACUUGC [Tiqurabi]", "True"),
    ("GGACGAAGUUUCUUGUCCGGUCGCUGAGAAGGAGCGCGGUAAACCGCAGGUAGGUCGCUCAGAAAUACAUGAGGAUCACCCAUGU [Orsosous]", "True"),
    ("GGCCGAUGGUGCGAUACCAGCUUGAGUGUACUGGCCAGGUACAUGAGGAUCACCCAUGUAAGCCCUUGGCAGCGCGUCAGAGGCC [#1 Exclusion - Theophylline B Attempt #21 (HarryS)]", "False"),
    ("GGGCGAGUGGCGCGGCGUGCUCCGCUCCGUCGAGGACCGGUACGGCCGCCACUCGACAUGAGGAUCACCCAUGUGCGAGCUCGCG [#1 Exclusion - Tryptophan A Attempt #12 (HarryS)]", "True"),
]

Pending sequence:
*Q* Could you please find out whether UCGCGAUAGAGAAGGAGCGUCAACACCACAGAACAUGAGGAUCACCCAUGUGUUACUUUUAGACAGGUAGGUCGCUCUAGCGCUU [JR_Nu_ExcArginiB_Sub028] has apparent KD of MS2 coat protein that meets 20 nM or exceeds it?
*A* False
